Measured protein stability index, listed per entry.
B1: HSP90AB1 (parent)
chain: TLRQKAEADKNDKAVKDLVVLLFE

Variants of: B1
ASSAY_TEXT: protein stability index of a GFP-peptide fusion (GPS, HEK-293T) (PSI 1-6); higher = more stable;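 note: lentivirally expressed fusions sorted by FACS into six bins by GFP to DsRed ratio, PSI derived from sequencing read proportions per bin multiplied by bin number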
MEASUREMENT_CONDITIONS: c terminus: a fixed tail appended
TEST_READOUT: protein stability index

{"columns": ["MUTATION_STRING", "READOUT_NUMBER"],
 "data": [
  ["K10M", 2.65],
  ["D9V", 2.38],
  ["L18V", 2.24],
  ["E7S", 2.67],
  ["A6T", 2.85],
  ["A6D", 3.41],
  ["K13H", 2.46],
  ["V20W", 2.58],
  ["F23H", 4.5],
  ["R3L", 3.11],
  ["A14I", 3],
  ["A14T", 2.57],
  ["Q4G", 3.06],
  ["K13N", 2.85],
  ["D12A", 2.44],
  ["L21V", 3.06],
  ["F23C", 3.71],
  ["Q4D", 3.32],
  ["R3C", 2.75],
  ["K16P", 2.65],
  ["V20M", 3.77],
  ["D12G", 2.48],
  ["T1V", 2.52],
  ["V20S", 4.6],
  ["L2V", 3.15],
  ["L18P", 4.21],
  ["L18G", 3.69],
  ["L22C", 3.82],
  ["N11S", 2.95],
  ["K10V", 2.57],
  ["N11I", 2.98],
  ["L2I", 3.16],
  ["A6Q", 2.68],
  ["V19F", 2.96],
  ["K13Q", 3.21],
  ["K10Q", 2.98],
  ["F23G", 4.87],
  ["T1N", 2.57],
  ["L22P", 4.97],
  ["T1S", 4.38],
  ["E7A", 2.67],
  ["K5V", 3.24],
  ["V19N", 3.91],
  ["K13Y", 2.2],
  ["N11A", 3],
  ["A8E", 3.16],
  ["K16Q", 3.75],
  ["V15M", 3.47],
  ["E7G", 2.24],
  ["V20P", 4.05],
  ["E7R", 2.29],
  ["L22N", 4.2],
  ["V19D", 4.61],
  ["V15I", 2.48],
  ["D12C", 2.59],
  ["T1C", 2.26],
  ["E7Y", 1.79],
  ["L21T", 3.5],
  ["V15R", 2.49],
  ["D17R", 1.98],
  ["N11T", 3.37],
  ["K10N", 2.98],
  ["A6K", 2.71],
  ["L18E", 4.04],
  ["Q4P", 3.06],
  ["A8Q", 3.24],
  ["A14K", 3.1],
  ["D9E", 2.74],
  ["L21F", 2.35],
  ["D9T", 2.35],
  ["D12T", 2.22],
  ["V15T", 3.11],
  ["L22G", 4.5],
  ["T1K", 2.49],
  ["L2Y", 2.64],
  ["L21E", 3.98],
  ["V15F", 2.91],
  ["E7I", 2.63],
  ["A14H", 2.79],
  ["N11E", 3.21],
  ["L18R", 3.19],
  ["A6I", 3.35],
  ["K13I", 2.47],
  ["A8R", 2.87],
  ["A6C", 2.91],
  ["Q4R", 2.26],
  ["A14P", 2.99],
  ["K10W", 2.52],
  ["L22F", 2.84],
  ["L22Q", 4.84],
  ["L18N", 4.19]
]}
